Origin of values: patent US20140107049A1

study_target: FimH-CRD (Escherichia coli)
attribute_measured: Kd (nM)
Give the number; nM is assumed, so skip it.

Quick one: Kd of O=c1[nH]cc(-c2ccc(O[C@H]3O[C@H](CO)[C@@H](O)[C@H](C[C@H]4O[C@H](CO)[C@@H](O)[C@H](O)[C@@H]4O)[C@@H]3O)cc2)c(=O)[nH]1 [Compound 11] ?
97

Entry OC[C@H]1O[C@H](C[C@@H]2[C@H](O)[C@@H](Oc3cccc(O)c3)O[C@H](CO)[C@H]2O)[C@@H](O)[C@@H](O)[C@@H]1O [Compound 6] please
301

Entry CNC(=O)c1cccc(-c2ccc(O[C@H]3O[C@H](CO)[C@@H](O)[C@H](C[C@H]4O[C@H](CO)[C@@H](O)[C@H](O)[C@@H]4O)[C@@H]3O)c(C)c2)c1 [Compound 4] please
51

* * *

So I've got a bunch of compounds here, and I need their Kd values.
study_target: FimH-CRD (Escherichia coli, UniProt P08191)
Sequence (P08191 22-177): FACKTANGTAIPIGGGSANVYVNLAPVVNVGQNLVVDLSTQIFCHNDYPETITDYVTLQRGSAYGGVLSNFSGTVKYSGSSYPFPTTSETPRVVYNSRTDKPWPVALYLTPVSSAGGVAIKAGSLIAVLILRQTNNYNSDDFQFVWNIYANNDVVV
run_description: Competitive binding assay (fluorescence polarization, Alexa647 mannoside probe)
Give the number; nM is assumed, so skip it.

Fill in the recorded Kd for this compound, with FimH-CRD (Escherichia coli, UniProt P08191) as test system: CO[C@H]1O[C@H](CO)[C@@H](O)[C@H](C(O)[C@H]2O[C@H](CO)[C@@H](O)[C@H](O)[C@@H]2O)[C@@H]1O (stereo partly drawn)
124

Entry "CNC(=O)Cc1cccc(-c2ccc(O[C@H]3O[C@H](CO)[C@@H](O)[C@H](C[C@H]4O[C@H](CO)[C@@H](O)[C@H](O)[C@@H]4O)[C@@H]3O)cc2)c1" please
79

Entry "CNC(=O)Cc1cccc(-c2cccc(O[C@H]3O[C@H](CO)[C@@H](O)[C@H](C[C@H]4O[C@H](CO)[C@@H](O)[C@H](O)[C@@H]4O)[C@@H]3O)c2)c1" please
50

* * *

study_target: FimH-CRD (Escherichia coli, UniProt P08191)
run_description: Competitive binding assay (fluorescence polarization, Alexa647 mannoside probe)
So I've got a bunch of molecules here, and I need their Kd values.
Give the number; nM is assumed, so skip it.

Quick one: Kd of CNC(=O)c1cccc(-c2ccc(O[C@H]3O[C@H](CO)[C@@H](O)[C@H](C[C@H]4O[C@H](CO)[C@@H](O)[C@H](O)[C@@H]4O)[C@@H]3O)cc2)c1 [Compound 3] ?
66

Entry CNC(=O)c1cccc(-c2ccc(O[C@H]3O[C@H](CO)[C@@H](O)[C@H](C(O)[C@H]4O[C@H](CO)[C@@H](O)[C@H](O)[C@@H]4O)[C@@H]3O)cc2)c1 (stereo partly drawn) [Compound 1] please
29

Entry CNC(=O)c1ccc(-c2ccc(C)c(O[C@H]3O[C@H](CO)[C@@H](O)[C@H](C[C@H]4O[C@H](CO)[C@@H](O)[C@H](O)[C@@H]4O)[C@@H]3O)c2)cc1 [Compound 15] please
19

* * *

study_target: FimH-CRD (Escherichia coli, UniProt P08191)
Label T when Kd is strictly below 60 nM; at or above that, label F.

Determine if O=C1NCC(c2ccc(O[C@H]3O[C@H](CO)[C@@H](O)[C@H](C[C@H]4O[C@H](CO)[C@@H](O)[C@H](O)[C@@H]4O)[C@@H]3O)cc2)=C(O)N1 [Compound 12] shows Kd strictly lower than 60 nM.
F

Entry CNC(=O)c1cc(C(=O)NC)cc(-c2cccc(O[C@H]3O[C@H](CO)[C@@H](O)[C@H](C[C@H]4O[C@H](CO)[C@@H](O)[C@H](O)[C@@H]4O)[C@@H]3O)c2)c1 [Compound 13] please
T

Entry CNC(=O)c1cc(C(=O)NC)cc(-c2ccc(O[C@H]3O[C@H](CO)[C@@H](O)[C@H](C[C@H]4O[C@H](CO)[C@@H](O)[C@H](O)[C@@H]4O)[C@@H]3O)cc2)c1 [Compound 8] please
F

Entry CNC(=O)c1cccc(O[C@H]2O[C@H](CO)[C@@H](O)[C@H](C[C@H]3O[C@H](CO)[C@@H](O)[C@H](O)[C@@H]3O)[C@@H]2O)c1 [Compound 5] please
F

Entry Cc1nnc(-c2ccc(-c3ccc(O[C@H]4O[C@H](CO)[C@@H](O)[C@H](C[C@H]5O[C@H](CO)[C@@H](O)[C@H](O)[C@@H]5O)[C@@H]4O)cc3)cc2)o1 [Compound 7] please
F
